Attribution: paper PMC7859889

- Test system: HLA-ABC
- Measurement Notes: HLA-ABC immunofluorescence
- Format: cell-based, human
- Condition Description: Homo sapiens, read-out: Immunofluorescence IC50
Where a name gives a salt, the structure may show the parent alone.
Quantity Name: pIC50
// scale note: pIC50 = -log10(conc_M); give the bare number

COc1cccc2c1C(=O)c1c(O)c3c(c(O)c1C2=O)C[C@@](O)(C(=O)CO)C[C@@H]3O[C@H]1C[C@H](N2CCO[C@H](OC)C2)[C@H](O)[C@H](C)O1 = 7.15
CCN(CC)Cc1ccc2cc(COC(=O)Nc3ccc(C(=O)NO)cc3)ccc2c1 [Givinostat HCl, Givinostat] = 6.59

Could you now consider this next compound?
Q: Recorded pIC50 of N#CC[C@H](C1CCCC1)n1cc(-c2ncnc3[nH]ccc23)cn1 , please.
Result: 6.06
